These data points were gathered from paper PMC4336329.

Target: human ether-à-go-go-related gene (hERG) potassium channel (human);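 further: peak tail current of the secondary pulse compared with the same well before compound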
Assay: primary screen, population patch clamp on CHO cells stably expressing hERG; higher = less effect of the substance
In all, about 310,000 compounds went through this assay and about 14,000 (4.5%) showed an effect of 50% or more. Effects have a minus sign here. This excerpt belongs to a sample that is enriched for strong results.
READOUT LABEL: hERG current change (%, negative = inhibition) at 10uM (%)
Response body: numeric value in %, unit text excluded.

Example entries and their recorded answers appear below.
COMPOUND	U	MEASURED NUMBER
O=S(=O)(Nc1ccc(-n2cnnn2)cc1)c1ccc(Cl)cc1	%	-18.2
O=C(Nc1ccc(C(=O)N2CCCC2)cc1)c1ccccc1F	%	-4.82
O=S(=O)(Cc1ccccc1)N1CCN(C/C=C/c2ccccc2)CC1	%	-5.88
O=C(O)C(=O)O.c1ccc(COc2ccc(OCCCN3CCCCC3)cc2)cc1	%	-78.3
COc1cccc(/C=C/c2ccc3cccc(O)c3n2)c1	%	14.8

For reference, reported hERG current change (%, negative = inhibition) at 10uM for "Cc1ccccc1S(=O)(=O)Oc1ccccc1C(=O)Oc1ccccc1" stands at -1.26

For reference, reported hERG current change (%, negative = inhibition) at 10uM for O=C(CN1C(=O)NC2(CCc3ccccc32)C1=O)Nc1cc(C(F)(F)F)ccc1N1CCOCC1 (stereo not shown) stands at -5.15

For reference, reported hERG current change (%, negative = inhibition) at 10uM for Cc1ccccc1N1CCN(C2CCCN(C(=O)COc3ccccc3)C2)CC1 (stereo not shown) stands at -62.7

---

Biological target: human ether-à-go-go-related gene (hERG) potassium channel (human, UniProt Q12809);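 further: peak tail current of the secondary pulse compared with the same well before compound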
Sequence (Q12809 whole entry, looked up): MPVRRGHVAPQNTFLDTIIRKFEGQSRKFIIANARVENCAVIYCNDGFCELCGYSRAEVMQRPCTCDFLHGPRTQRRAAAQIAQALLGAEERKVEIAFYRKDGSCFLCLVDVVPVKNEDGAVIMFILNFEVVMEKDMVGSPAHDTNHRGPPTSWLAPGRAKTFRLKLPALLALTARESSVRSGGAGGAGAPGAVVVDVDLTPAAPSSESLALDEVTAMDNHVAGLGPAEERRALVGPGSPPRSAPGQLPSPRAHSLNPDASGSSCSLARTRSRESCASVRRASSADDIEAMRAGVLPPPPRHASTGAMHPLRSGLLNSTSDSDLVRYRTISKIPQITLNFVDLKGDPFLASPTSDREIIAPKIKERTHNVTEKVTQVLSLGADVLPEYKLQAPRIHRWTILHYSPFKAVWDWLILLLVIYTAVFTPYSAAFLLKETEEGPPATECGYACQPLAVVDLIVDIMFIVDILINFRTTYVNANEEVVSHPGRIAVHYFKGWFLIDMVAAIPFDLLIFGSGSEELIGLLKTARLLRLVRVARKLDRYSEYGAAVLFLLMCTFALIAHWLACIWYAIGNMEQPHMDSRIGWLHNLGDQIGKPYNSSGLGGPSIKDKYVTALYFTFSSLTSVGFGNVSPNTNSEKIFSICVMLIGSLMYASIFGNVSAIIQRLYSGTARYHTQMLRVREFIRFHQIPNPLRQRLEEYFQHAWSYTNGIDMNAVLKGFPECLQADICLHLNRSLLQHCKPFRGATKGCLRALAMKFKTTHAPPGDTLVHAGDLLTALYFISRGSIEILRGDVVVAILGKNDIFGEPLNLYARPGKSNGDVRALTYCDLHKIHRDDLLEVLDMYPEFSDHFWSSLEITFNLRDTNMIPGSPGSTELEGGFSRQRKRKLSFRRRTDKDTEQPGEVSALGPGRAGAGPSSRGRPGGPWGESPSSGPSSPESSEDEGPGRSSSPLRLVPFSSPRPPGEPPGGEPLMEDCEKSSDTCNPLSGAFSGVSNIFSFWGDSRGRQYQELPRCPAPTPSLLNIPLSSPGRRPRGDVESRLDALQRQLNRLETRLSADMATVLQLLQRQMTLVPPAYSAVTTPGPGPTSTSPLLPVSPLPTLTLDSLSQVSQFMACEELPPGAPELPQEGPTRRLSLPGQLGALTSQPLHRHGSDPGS
Experiment: primary screen, population patch clamp on CHO cells stably expressing hERG; higher = less effect of the substance
Hit rate of the full screen: of about 310,000 compounds, about 14,000 (4.5%) showed an effect of 50% or more. Effects have a minus sign here. For the sample, strong results were picked, then their nearest neighbours and some compounds at random.
Below: a set of entries, each annotated with reported hERG current change (%, negative = inhibition) at 10uM.
Response body: numeric value in %, unit text excluded.

CC(=O)c1ccc(N2CCCC2)c(F)c1 1.88
O=C(Nc1ccccc1Cl)c1cc(S(=O)(=O)N2CCOCC2)cs1 -9.07
COc1ccccc1C(=O)CC(=O)C(=O)Nc1cccc([N+](=O)[O-])c1C 8.79

For reference, reported hERG current change (%, negative = inhibition) at 10uM for "CC(=O)c1cc(F)c(N2CCN(C(=O)COc3ccccc3F)CC2)cc1C" stands at -7.84

For reference, reported hERG current change (%, negative = inhibition) at 10uM for "Cc1ccc(NC(=O)c2cc(S(=O)(=O)N3CCOCC3)cn2C)cc1Cl" stands at 11.2

For reference, reported hERG current change (%, negative = inhibition) at 10uM for "CC(=O)c1cc(F)c(N2CCN(C(=O)COc3ccc(F)cc3)CC2)cc1C" stands at -76.3

For reference, reported hERG current change (%, negative = inhibition) at 10uM for "CCCCCC(=O)N1CCN(c2ccc(C(C)=O)cc2F)CC1" stands at -60.9

For reference, reported hERG current change (%, negative = inhibition) at 10uM for "O=C(Nc1ccccc1C(=O)O)c1cc(S(=O)(=O)N2CCCCC2)cs1" stands at 10.1

For reference, reported hERG current change (%, negative = inhibition) at 10uM for "Cc1cccc(C)c1-n1c(C)nn(CC#N)c1=O" stands at 19.1

For reference, reported hERG current change (%, negative = inhibition) at 10uM for "Cc1ccc(-c2nc3c(=O)n(C)c4ccccc4c3o2)cc1" stands at 22.3

---

Below: a set of entries, each annotated with reported hERG current change (%, negative = inhibition) at 10uM.
Target: human ether-à-go-go-related gene (hERG) potassium channel (human, UniProt Q12809);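 further: peak tail current of the secondary pulse compared with the same well before compound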
Assay: primary screen, population patch clamp on CHO cells stably expressing hERG; higher = less effect of the substance
Hit rate of the full screen: of about 310,000 compounds, about 14,000 (4.5%) showed an effect of 50% or more. The effect is printed as a negative number. Many of the other results were omitted from the sample, so strong results are more common in it than they were.
Response body: numeric value in %, unit text excluded.

Example entries and their recorded answers appear below.
COMPOUND	TARGET	MEASURED NUMBER
O=C(C1CCCO1)N1CCc2ccccc21 (centres unmarked)	human ether-à-go-go-related gene (hERG) potassium channel (human, UniProt Q12809)	17.1
O=C(CSc1ncn[nH]1)Nc1nc(-c2ccccc2)ns1	human ether-à-go-go-related gene (hERG) potassium channel (human, UniProt Q12809)	-7.44
Cc1ccc2ccc3cccc4ccc1c2c34	human ether-à-go-go-related gene (hERG) potassium channel (human, UniProt Q12809)	14

Observed hERG current change (%, negative = inhibition) at 10uM, human ether-à-go-go-related gene (hERG) potassium channel (human, UniProt Q12809), "C=CCNc1oc(Cc2cccc3ccccc23)nc1C#N" : -14.7

Observed hERG current change (%, negative = inhibition) at 10uM, human ether-à-go-go-related gene (hERG) potassium channel (human, UniProt Q12809), "Fc1ccc(CNCCc2ccc3c(c2)OCO3)cc1" : -3.52

Observed hERG current change (%, negative = inhibition) at 10uM, human ether-à-go-go-related gene (hERG) potassium channel (human, UniProt Q12809), "Brc1cccc(CNCCc2ccc3c(c2)OCO3)c1.O=C(O)C(=O)O" : -24.9

Observed hERG current change (%, negative = inhibition) at 10uM, human ether-à-go-go-related gene (hERG) potassium channel (human, UniProt Q12809), "Cc1ccc2c(c1)nc(NCCCO)n2C" : -3.54

Observed hERG current change (%, negative = inhibition) at 10uM, human ether-à-go-go-related gene (hERG) potassium channel (human, UniProt Q12809), COc1ccc(-c2nc(CS(=O)CC(=O)NC3CCCC3)c(C)o2)cc1 (centres unmarked) : -16.4

Observed hERG current change (%, negative = inhibition) at 10uM, human ether-à-go-go-related gene (hERG) potassium channel (human, UniProt Q12809), CCC(C)N1C(=O)N(C)C2NC(=O)NC21 (centres unmarked) : -2.9

Observed hERG current change (%, negative = inhibition) at 10uM, human ether-à-go-go-related gene (hERG) potassium channel (human, UniProt Q12809), "COc1ccc(CNCc2cc3c(cc2[N+](=O)[O-])OCO3)cc1.O=C(O)C(=O)O" : -40.8

Observed hERG current change (%, negative = inhibition) at 10uM, human ether-à-go-go-related gene (hERG) potassium channel (human, UniProt Q12809), "COc1cc(OC)cc(-c2c(-c3cccs3)c3cc(-c4ccn[nH]4)ccc3n2C)c1" : 7.72

Observed hERG current change (%, negative = inhibition) at 10uM, human ether-à-go-go-related gene (hERG) potassium channel (human, UniProt Q12809), "CC(=O)c1cn(C)c(=O)n(C)c1=O" : 4.7

Observed hERG current change (%, negative = inhibition) at 10uM, human ether-à-go-go-related gene (hERG) potassium channel (human, UniProt Q12809), "COc1cc2c3cc1Oc1cc(ccc1O)C[C@@H]1c4c(cc(OC)c(O)c4Oc4ccc(cc4)C[C@H]3N(C)CC2)CCN1C" : -37

---

Target: human ether-à-go-go-related gene (hERG) potassium channel (human, UniProt Q12809);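 further: peak tail current of the secondary pulse compared with the same well before compound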
Assay: primary screen, population patch clamp on CHO cells stably expressing hERG; higher = less effect of the substance
The campaign covered roughly 310,000 compounds. About 14,000 (4.5%) showed an effect of 50% or more. Effects have a minus sign here. Only a selection was taken, and strong results are over-represented in it overall.
READOUT LABEL: hERG current change (%, negative = inhibition) at 10uM
Remember to quote the unit after the number.

Example entries and their recorded answers appear below.
COMPOUND	RESULT
Cc1occc1-c1nnc(SCC(=O)Nc2ccccc2)n1Cc1ccccc1	-76.3%
Cc1ccc2c(c1)NC(=O)C(CC(=O)NCCN(C)C)O2 (stereo not shown)	-2.42%
CC(C)CN(CCNC(=O)CC1Oc2ccccc2NC1=O)CC(C)C (stereo not shown)	-27.7%
Cc1cc(C)nc(SC2CCOC2=O)n1 (stereo not shown)	0.669%
CCOc1ccc(NC(=O)C2CCCN(C(=O)Nc3ccccc3)C2)cc1 (stereo not shown)	2.35%

For reference, reported hERG current change (%, negative = inhibition) at 10uM for CCC(C)N(CCNC(=O)c1ccc2c(c1)NC(=O)c1ccccc1S2)C1CCCCC1 (stereo not shown) stands at -66.4%

For reference, reported hERG current change (%, negative = inhibition) at 10uM for "CN(C)CCNC(=O)c1ccc2c(c1)NC(=O)c1ccccc1S2" stands at 17.3%

For reference, reported hERG current change (%, negative = inhibition) at 10uM for CCC(C)N(CCNC(=O)CC1Oc2ccc(C)cc2NC1=O)C1CCCCC1 (stereo not shown) stands at -71.5%

For reference, reported hERG current change (%, negative = inhibition) at 10uM for Cc1ccc2c(c1)NC(=O)C(CC(=O)NCCN(CC(C)C)CC(C)C)O2 (stereo not shown) stands at -24.7%

For reference, reported hERG current change (%, negative = inhibition) at 10uM for "CCN(CC)CCNC(=O)c1ccc2c(c1)NC(=O)c1ccccc1S2" stands at -31.9%
